biological target: CXCR4 receptor (Homo sapiens); construct: endogenous in cells; host or cells: Jurkat cells; assay: Receptor binding assay (competition with 125I tracer on Jurkat cells); conditions: tracer cyclo(-D-Tyr^1 [^125I]-Arg^2-Arg^3-Nal^4-Gly^5), 2 h at room temperature, L-Ala series
pIC50: −log10 of the molar value. *1 amine or outer side, *2 acyl side, *3 side chain or, on linkers, in order; H or OH if unused. Where a SMILES comes first, the peptide text is derived from it. [ ]: non-standard residue; d: D form. X1 = C[C@@H](C(=O)[*:2])N(CCCCCCNC(=N)N)[*:1]; X10 = C[C@@H](C(=O)[*:2])N(CCCCCCN)[*:1]; 2Nal = N[C@@H](Cc1ccc2ccccc2c1)C(=O)O
measured-metric: pIC50

a. C[C@H]1C(=O)N[C@@H](CCCNC(=N)N)C(=O)N[C@@H](Cc2ccc3ccccc3c2)C(=O)NCC(=O)N[C@H](Cc2ccc(O)cc2)C(=O)N1CCCCCCN [yA(Hex)RNalG] (cyclo([2Nal]G[dY][X10]R))
b. C[C@H]1C(=O)N[C@@H](CCCNC(=N)N)C(=O)N[C@@H](Cc2ccc3ccccc3c2)C(=O)NCC(=O)N[C@H](Cc2ccc(O)cc2)C(=O)N1CCCCCCNC(=N)N [yA(Hex,Gua)RNa IG] (cyclo([2Nal]G[dY][X1]R))
Input line: Which shows the larger pIC50 value: a or b ? Please indicate the selected item by its label.
Output line: b
(b: 8.36, a: 7.03)

----------
Target: CXCR4 receptor (Homo sapiens, UniProt P61073)
Construct: endogenous in cells; host or cells: Jurkat cells
Sequence (P61073 whole entry): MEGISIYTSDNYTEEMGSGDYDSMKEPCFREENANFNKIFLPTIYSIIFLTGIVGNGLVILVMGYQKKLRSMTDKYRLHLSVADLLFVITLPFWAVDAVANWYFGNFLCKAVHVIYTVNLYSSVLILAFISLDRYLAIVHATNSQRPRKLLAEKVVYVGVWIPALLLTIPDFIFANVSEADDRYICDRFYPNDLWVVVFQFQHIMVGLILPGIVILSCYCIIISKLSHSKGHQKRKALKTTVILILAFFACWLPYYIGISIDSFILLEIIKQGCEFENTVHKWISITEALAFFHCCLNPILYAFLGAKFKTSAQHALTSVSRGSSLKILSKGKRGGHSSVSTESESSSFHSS
Experiment: Receptor binding assay (competition with 125I tracer on Jurkat cells)
Details: tracer cyclo(-D-Tyr^1 [^125I]-Arg^2-Arg^3-Nal^4-Gly^5), 2 h at room temperature, alkyl chain length n varied
Description: For receptor binding assays cells were resuspended in PBS/0.2 % BSA. […] Nonspecific binding was determined in the presence of 1 µM cold cyclo(-D-Tyr^1[^127I]-Arg^2-Arg^3-Nal^4-Gly^5). […] Cell bound radioactivity was determined by using a gamma counter. […] IC50 values of the compounds were calculated by nonlinear regression using GraphPad Prism (GraphPad Prism 4.0 Software, Inc., San Diego, CA, USA). […]
pIC50: −log10 of the molar value. *1 amine or outer side, *2 acyl side, *3 side chain or, on linkers, in order; H or OH if unused. Where a SMILES comes first, the peptide text is derived from it. [ ]: non-standard residue; d: D form. X6 = C[C@H](C(=O)[*:2])N(CCCCCCCNC(=O)c1ccc(F)cc1)[*:1]; X9 = C[C@H](C(=O)[*:2])N(CCCCNC(=O)c1ccc(F)cc1)[*:1]; X13 = C[C@H](C(=O)[*:2])N(CCCCCN)[*:1]; 2Nal = N[C@@H](Cc1ccc2ccccc2c1)C(=O)O
measured-metric: pIC50

{"columns": ["compound", "observed-value"],
 "data": [
  ["C[C@@H]1C(=O)N[C@@H](CCCNC(=N)N)C(=O)N[C@@H](Cc2ccc3ccccc3c2)C(=O)NCC(=O)N[C@H](Cc2ccc(O)cc2)C(=O)N1CCCCCCCNC(=O)c1ccc(F)cc1 [ya(Hept,FBz)RNalG] (cyclo([dY][X6]R[2Nal]G))", 7.78]
]}

1. C[C@@H]1C(=O)N[C@@H](CCCNC(=N)N)C(=O)N[C@@H](Cc2ccc3ccccc3c2)C(=O)NCC(=O)N[C@H](Cc2ccc(O)cc2)C(=O)N1CCCCNC(=O)c1ccc(F)cc1 [ya(But,FBz)RNalG] (cyclo([2Nal]G[dY][X9]R))
2. C[C@@H]1C(=O)N[C@@H](CCCNC(=N)N)C(=O)N[C@@H](Cc2ccc3ccccc3c2)C(=O)NCC(=O)N[C@H](Cc2ccc(O)cc2)C(=O)N1CCCCCN [ya(Pent)RNalG] (cyclo([2Nal]G[dY][X13]R))
Input line: Which shows the larger pIC50 value: 1 or 2 ? Please indicate the selected item by its label.
Output line: 2

----------
biological target: CXCR4 receptor (Homo sapiens, UniProt P61073); construct: endogenous in cells; host or cells: Jurkat cells; test: Receptor binding assay (competition with 125I tracer on Jurkat cells); details: tracer cyclo(-D-Tyr^1 [^125I]-Arg^2-Arg^3-Nal^4-Gly^5), 2 h at room temperature, D-Ala N-hexyl series, R varied
*1 amine or outer side, *2 acyl side, *3 side chain or, on linkers, in order; H or OH if unused. Where a SMILES comes first, the peptide text is derived from it. [ ]: non-standard residue; d: D form. dAla(N-(6-guanidinohexyl)) = C[C@@H](NCCCCCCNC(=N)N)C(=O)O; X5 = C[C@H](C(=O)[*:2])N(CCCCCCNCc1cccc2ccccc12)[*:1]; 2Nal = N[C@@H](Cc1ccc2ccccc2c1)C(=O)O
measured-metric: IC50 (nM)

I. C[C@@H]1C(=O)N[C@@H](CCCNC(=N)N)C(=O)N[C@@H](Cc2ccc3ccccc3c2)C(=O)NCC(=O)N[C@H](Cc2ccc(O)cc2)C(=O)N1CCCCCCNC(=N)N [ya(Hex, Gua) RNalG] (cyclo([dY][dAla(N-(6-guanidinohexyl))]R[2Nal]G))
II. C[C@@H]1C(=O)N[C@@H](CCCNC(=N)N)C(=O)N[C@@H](Cc2ccc3ccccc3c2)C(=O)NCC(=O)N[C@H](Cc2ccc(O)cc2)C(=O)N1CCCCCCNCc1cccc2ccccc12 [ya(Hex,1 Nap) RNalG] (cyclo([2Nal]G[dY][X5]R))
Input line: Which shows the larger IC50 value: I or II ? Please indicate the selected item by its label.
Output line: II
(II: 5.1 nM, I: 0.04 nM)

----------
molecular target: CXCR4 receptor (Homo sapiens, UniProt P61073); construct: endogenous in cells; host or cells: Jurkat cells; assay: Receptor binding assay (competition with 125I tracer on Jurkat cells); conditions: tracer cyclo(-D-Tyr^1 [^125I]-Arg^2-Arg^3-Nal^4-Gly^5), 2 h at room temperature, alkyl chain length n varied
*1 amine or outer side, *2 acyl side, *3 side chain or, on linkers, in order; H or OH if unused. Where a SMILES comes first, the peptide text is derived from it. [ ]: non-standard residue; d: D form. X14 = C[C@H](C(=O)[*:2])N(CCCCCNC(=O)c1ccc(F)cc1)[*:1]; X2 = C[C@H](C(=O)[*:2])N(CCCCCCCN)[*:1]; 2Nal = N[C@@H](Cc1ccc2ccccc2c1)C(=O)O; X11 = C[C@H](C(=O)[*:2])N(CCCCN)[*:1]
measured-metric: IC50 (nM)

I. C[C@@H]1C(=O)N[C@@H](CCCNC(=N)N)C(=O)N[C@@H](Cc2ccc3ccccc3c2)C(=O)NCC(=O)N[C@H](Cc2ccc(O)cc2)C(=O)N1CCCCCNC(=O)c1ccc(F)cc1 [ya(Pent, FBz)RNalG] (cyclo([2Nal]G[dY][X14]R))
II. C[C@@H]1C(=O)N[C@@H](CCCNC(=N)N)C(=O)N[C@@H](Cc2ccc3ccccc3c2)C(=O)NCC(=O)N[C@H](Cc2ccc(O)cc2)C(=O)N1CCCCCCCN [ya(Hept)RNalG] (cyclo([2Nal]G[dY][X2]R))
III. C[C@@H]1C(=O)N[C@@H](CCCNC(=N)N)C(=O)N[C@@H](Cc2ccc3ccccc3c2)C(=O)NCC(=O)N[C@H](Cc2ccc(O)cc2)C(=O)N1CCCCN [ya(But)RNalG] (cyclo([2Nal]G[dY][X11]R))
Input line: # ascending order, key=IC50 API: response body holds the labels in the requested order.
Output line: III, II, I

----------
biological target: CXCR4 receptor (Homo sapiens, UniProt P61073); construct: endogenous in cells; host or cells: Jurkat cells; test: Receptor binding assay (competition with 125I tracer on Jurkat cells); details: tracer cyclo(-D-Tyr^1 [^125I]-Arg^2-Arg^3-Nal^4-Gly^5), 2 h at room temperature, D-Ala N-hexyl series, R varied
*1 amine or outer side, *2 acyl side, *3 side chain or, on linkers, in order; H or OH if unused. Where a SMILES comes first, the peptide text is derived from it. [ ]: non-standard residue; d: D form. The star is where a group is joined. DOTA = O=C(O)CN1CCN(CC(=O)O)CCN(CC(=O)*)CCN(CC(=O)O)CC1; X8 = C[C@H](C(=O)[*:2])N(CCCCCCNC(=O)c1ccc(F)cc1)[*:1]; X4 = C[C@H](C(=O)[*:2])N(CCCCCCNCc1ccccc1)[*:1]; X7 = CC(=O)NCCCCCCN([C@H](C)C(=O)[*:2])[*:1]; X3 = C[C@H](C(=O)[*:2])N(CCCCCCN[*:3])[*:1]; X12 = C[C@H](C(=O)[*:2])N(CCCCCCN)[*:1]; 2Nal = N[C@@H](Cc1ccc2ccccc2c1)C(=O)O
measured-metric: IC50 (nM)

{"columns": ["compound", "IC50 (nM)"],
 "data": [
  ["C[C@@H]1C(=O)N[C@@H](CCCNC(=N)N)C(=O)N[C@@H](Cc2ccc3ccccc3c2)C(=O)NCC(=O)N[C@H](Cc2ccc(O)cc2)C(=O)N1CCCCCCNC(=O)CN1CCN(CC(=O)O)CCN(CC(=O)O)CCN(CC(=O)O)CC1 [ya(Hex,DOTA) RNalG] (cyclo([2Nal]G[dY][X3](DOTA)R))", 510]
]}

1. C[C@@H]1C(=O)N[C@@H](CCCNC(=N)N)C(=O)N[C@@H](Cc2ccc3ccccc3c2)C(=O)NCC(=O)N[C@H](Cc2ccc(O)cc2)C(=O)N1CCCCCCN [ya(Hex)RNalG] (cyclo([2Nal]G[dY][X12]R))
2. CC(=O)NCCCCCCN1C(=O)[C@@H](Cc2ccc(O)cc2)NC(=O)CNC(=O)[C@H](Cc2ccc3ccccc3c2)NC(=O)[C@H](CCCNC(=N)N)NC(=O)[C@H]1C [ya(Hex,Ac) RNalG] (cyclo([2Nal]G[dY][X7]R))
3. C[C@@H]1C(=O)N[C@@H](CCCNC(=N)N)C(=O)N[C@@H](Cc2ccc3ccccc3c2)C(=O)NCC(=O)N[C@H](Cc2ccc(O)cc2)C(=O)N1CCCCCCNCc1ccccc1 [ya(Hex, Bz) RNalG] (cyclo([2Nal]G[dY][X4]R))
4. C[C@@H]1C(=O)N[C@@H](CCCNC(=N)N)C(=O)N[C@@H](Cc2ccc3ccccc3c2)C(=O)NCC(=O)N[C@H](Cc2ccc(O)cc2)C(=O)N1CCCCCCNC(=O)c1ccc(F)cc1 [ya(Hex, FBz) RNalG] (cyclo([2Nal]G[dY][X8]R))
Input line: Please give the order of these compounds when sorted by IC50, largest value leading. API: response body holds the labels in the requested order.
Output line: 2, 4, 3, 1
(2: 44.1 nM, 4: 21.4 nM, 3: 4.2 nM, 1: 0.3 nM)
